protocol: In vitro inhibition of amyloid precursor protein 695 activity in CHO cells expressing human APP
property name: EC50 (nM)
Numeric only. Scale: nM

Endpoint output: EC50 of `CCOC(=O)N1CCC(c2ccccc2OC)(S(=O)(=O)c2ccc(Cl)cc2)CC1` . Value?
1030
